molecular target: human GLP-1 receptor (human, UniProt P43220 24-463); test: cell-based or functional assay
Values of hGLPIR cAMP EC50 ratio strictly less than 0.6 map to Condition met, and values of at least 0.6 map to Condition not met.

BINDER	DISCRETE_LABEL
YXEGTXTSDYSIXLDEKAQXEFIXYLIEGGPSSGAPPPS (Aib2; αMeF6; αMeL13; K17((2-[2-(2-Amino-ethoxy)-ethoxy]-acetyl)2-(γGlu)-CO-(CH2)18-CO2H); Aib20; D-Glu24; C-terminal NH2) [Peptide 227]	Condition not met
YXEGTXTSDHSIXLDEKAQXHFIXYLIEGGPSSGAPPPS (Aib2; αMeF(2F)6; αMeL13; K17((2-[2-(2-Amino-ethoxy)-ethoxy]-acetyl)2-(γGlu)-CO-(CH2)14-CO2H); Aib20; D-Glu24; C-terminal NH2) [Peptide 178]	Condition met
YXEGTXTSDXSIXLDKKAQXEFIXYLIEGGPSSGAPPPS (Aib2; αMeF(2F)6; 4Pal10; αMeL13; K17((2-[2-(2-Amino-ethoxy)-ethoxy]-acetyl)2-(γGlu)-CO-(CH2)18-CO2H); Aib20; D-Glu24; C-terminal NH2) [Peptide 203]	Condition not met
YXEGTXTSDYSIXLDKKAQXDFIEYLIEGGPSSGAPPPS (Aib2; αMeF6; αMeL13; K17((2-[2-(2-Amino-ethoxy)-ethoxy]-acetyl)2-(γGlu)-CO-(CH2)18-CO2H); Aib20; C-terminal NH2) [Peptide 140]	Condition not met
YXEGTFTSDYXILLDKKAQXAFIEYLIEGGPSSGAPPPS (Aib2; D-Ser11; K17((2-[2-(2-Amino-ethoxy)-ethoxy]-acetyl)2-(γGlu)-CO-(CH2)18-CO2H); Aib20; C-terminal NH2) [Peptide 81]	Condition met

Determine if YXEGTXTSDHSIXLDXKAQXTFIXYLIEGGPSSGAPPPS (Aib2; αMeF(2F)6; αMeL13; Dab16; K17((2-[2-(2-Amino-ethoxy)-ethoxy]-acetyl)2-(γGlu)-CO-(CH2)18-CO2H); Aib20; D-Glu24; C-terminal NH2) [Peptide 172] shows hGLPIR cAMP EC50 ratio strictly lower than 0.6. Condition met

Thanks! And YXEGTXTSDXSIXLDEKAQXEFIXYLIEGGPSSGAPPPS (Aib2; αMeF(2F)6; 4Pal10; αMeL13; K17((2-[2-(2-Amino-ethoxy)-ethoxy]-acetyl)2-CO-(CH2)18-CO2H); Aib20; D-Glu24; C-terminal NH2) [Peptide 206] ? Condition not met

Follow-up entry: YXEGTXTSDYSIXLDEKAQXEFIVYLIEGGPSSGAPPPS (Aib2; αMeF(2F)6; αMeL13; K17((2-[2-(2-Amino-ethoxy)-ethoxy]-acetyl)2-(γGlu)-CO-(CH2)18-CO2H); Aib20; C-terminal NH2) [Peptide 149] Condition met

Please do the same for YXEGTXTSDYSIXLDKKAQXAFIEYLIEGG (Aib2; αMeF6; αMeL13; K17((2-[2-(2-Amino-ethoxy)-ethoxy]-acetyl)2-(γGlu)-CO-(CH2)18-CO2H); Aib20; C-terminal NH2) [Peptide 99] as well. Condition not met
